- assay_summary: Binding affinity to immobilized artificial membrane PC DD2 (unknown origin) by UV/Vis detector model
Listing of recorded log K by entry.
Reply with just the number.

CNC(=O)[C@@H](N)CNC(=O)/C=C/C(=O)OC.Cl	-0.193

Task: Given the compound `COC(=O)/C=C/C(=O)NC[C@H](N)C(N)=O.Cl` , write its reported log K.
Output: -0.362

Task: Fill in reported log K for this entry: `COC(=O)/C=C/C(=O)NC[C@H](N)C(=O)N(C)C.Cl`
Output: 0.118

Task: Return the recorded log K value; entry: `COC(=O)/C=C/C(=O)NC[C@H](N)C(=O)O`
Output: -0.812
